tested on: SK-OV-3 ovarian; experiment: NCI tumour cell line growth inhibition, 48 h
Would you mind telling me the reported TGI of each entry?

Short answer on SK-OV-3 ovarian for CCCCCCCCCCCCCCCCCCOCC(CO[P+](=O)O)OCCCCCCCCCCCCCCCCCC (stereo unspecified) , TGI: > 50 µM

Short answer on SK-OV-3 ovarian for Cc1ccc(S(=O)(=O)N2CCc3ccc(O)c4c3C2Cc2cc(Cl)ccc2-4)cc1 (stereo unspecified) , TGI: 3.75 µM

Short answer on SK-OV-3 ovarian for CNC(=O)CCCN(C)C(=O)CCCCC(=O)N(C)C , TGI: > 100 µM

Short answer on SK-OV-3 ovarian for CC(C)[C@](O)(C(=O)OCC1CC[N+]2([O-])CC[C@@H](O)C12)[C@H](C)O (stereo partly specified) , TGI: > 375 µM

Short answer on SK-OV-3 ovarian for NC1=NNC2(C(N)=N1)c1ccccc1-c1ccccc12 , TGI: > 10 µM

Short answer on SK-OV-3 ovarian for CN(C)CCNC(=O)c1cccc2[nH]c(-c3ccccc3)nc12 , TGI: 56.3 µM

Short answer on SK-OV-3 ovarian for CC12CCC[C@@](C)(C(=O)OC3OC(CO)C(O)C(O)C3O)[C@H]1CCC13CC4CC(OC4(CO)[C@H]1O)[C@@H]23 (stereo partly specified) , TGI: > 100 µM

Short answer on SK-OV-3 ovarian for O=C(CCCl)NNC1=NCCN1 , TGI: > 100 µM

Short answer on SK-OV-3 ovarian for COc1ccc(/C(C)=N/OC(=O)c2c(-c3ccccc3Cl)noc2C)cc1CN1CCOCC1 , TGI: > 100 µM

Short answer on SK-OV-3 ovarian for COC(=O)C1=C(C(=O)OC)C23C=C(C)C1C2=C(C)C1(CC1)[C@@](C)(O)C3=O (stereo partly specified) , TGI: 0.7 µM

Short answer on SK-OV-3 ovarian for Cc1cc(C)c2c(=O)n(CN3CCC(O)(c4ccccc4)CC3)sc2n1 , TGI: > 100 µM
